Taken from paper PMC10817917.

Would you mind telling me the reported MIC of compound in combination with PMB of each entry?
# System: P. aeruginosa CQ4924
# Test method notes: Broth microdilution MIC, glycosides with or without polymyxins
# Assay type: cell-based, Pseudomonas aeruginosa
# Measurement parameters: PMB 0.5 μg/mL; strain H

[in] What does the data say about its MIC of compound in combination with PMB? Entry: "CCCCCCCCCCCC[C@H]1O[C@H](C)C[C@H](O)[C@H]1O"
[out] 6.3 µg/mL

[in] // next record "CCCCCCCCCCCCO[C@H]1O[C@H](C)C[C@H](O)[C@H]1O"
[out] > 100 µg/mL

[in] Would you kindly repeat that for "CCCCCCCCCCCCO[C@@H]1C[C@@H](O)[C@H](O)[C@@H](CO)O1" ?
[out] > 100 µg/mL

[in] Would you mind doing "CCCCCCCCCCCCO[C@H]1C[C@H](O)[C@@H](O)[C@H](C)O1" as well?
[out] > 100 µg/mL
